Where do the numbers come from? From patent US20190008977A1.

Target: T1, NPR-B expressed endogenously on NIH-3T3 cells (Murine Embryo Fibroblast cell line) (mouse (endogenous in the murine NIH-3T3 …, UniProt Q6VVW5 17-1047))
T1 sequence (looked up): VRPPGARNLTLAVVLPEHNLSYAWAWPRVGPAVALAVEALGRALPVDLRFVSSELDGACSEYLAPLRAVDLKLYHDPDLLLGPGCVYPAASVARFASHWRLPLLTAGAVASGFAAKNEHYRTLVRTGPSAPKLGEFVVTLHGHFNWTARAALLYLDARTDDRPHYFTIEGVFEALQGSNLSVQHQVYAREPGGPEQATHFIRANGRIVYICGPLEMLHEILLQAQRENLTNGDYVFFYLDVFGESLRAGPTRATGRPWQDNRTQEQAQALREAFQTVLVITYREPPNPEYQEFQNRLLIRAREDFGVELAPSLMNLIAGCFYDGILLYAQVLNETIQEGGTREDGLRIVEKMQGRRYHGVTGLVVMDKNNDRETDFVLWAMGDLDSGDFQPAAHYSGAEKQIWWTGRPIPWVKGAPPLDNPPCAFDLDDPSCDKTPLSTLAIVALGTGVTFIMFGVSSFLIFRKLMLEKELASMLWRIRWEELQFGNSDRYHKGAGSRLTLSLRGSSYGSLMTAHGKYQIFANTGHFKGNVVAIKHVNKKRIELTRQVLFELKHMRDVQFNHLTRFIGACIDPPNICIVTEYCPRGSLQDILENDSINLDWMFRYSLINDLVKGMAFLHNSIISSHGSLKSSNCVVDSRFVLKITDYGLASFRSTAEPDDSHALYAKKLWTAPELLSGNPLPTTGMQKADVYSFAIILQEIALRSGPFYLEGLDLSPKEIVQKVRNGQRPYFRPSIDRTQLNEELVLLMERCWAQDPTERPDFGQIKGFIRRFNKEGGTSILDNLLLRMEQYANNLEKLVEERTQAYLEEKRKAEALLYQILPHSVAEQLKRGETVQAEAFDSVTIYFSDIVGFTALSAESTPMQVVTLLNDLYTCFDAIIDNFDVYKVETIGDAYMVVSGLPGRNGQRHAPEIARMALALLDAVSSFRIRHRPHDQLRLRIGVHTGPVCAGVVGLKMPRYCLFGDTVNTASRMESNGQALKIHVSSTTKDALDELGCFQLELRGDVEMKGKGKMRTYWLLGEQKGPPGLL
Assay: cell-based or functional assay
Bridge positions count the residues as written; N and C are the ends. Side chains are listed from the residue outwards. Ends that are not written are not given here. * marks the point of attachment. Hexanoyl(6-maleimido) = O=C1C=CC(=O)N1CCCCCC(=O)*; reversible prodrug linker = not defined here
Known EC50 compound/EC50 CNP-38 (cGMP stimulation in NIH-3T3 cells, residual NPR-B activity) of a selection of binders

| BINDER | ASSAY VALUE |
| --- | --- |
| {PEG 5 kDa-Hexanoyl(6-maleimido)}-LQEHPNARKYKGANKKGLSKGCFGLKLDRIGSMSGLGC (disulfide 22-38) [permanent N-terminal CNP-38 PEG 5 kDa conjugate 15e] | > 5 ratio |
| LQEHPNARKYKGANKKGLSKGCFGLK(branched PEG 4x10 kDa)LDRIGSMSGLGC (disulfide 22-38) [permanent Lys26 CNP-38 PEG4x10 kDa conjugate 12g] | > 100 ratio |
| LQEHPNARKYKGANKKGLSKGCFGLK([reversible prodrug linker-branched PEG 2x20 kDa])LDRIGSMSGLGC (disulfide 22-38; reading uncertain) [reversible Lys26 CNP-38 PEG2x20 kDa conjugate 10f] | > 100 ratio |
| LQEHPNARKYKGANKKGLSKGCFGLKLDRIGSMSGLGC (5 kDa PEG stably attached through a maleimidohexanoyl group at the side chain of Lys26 (ring lysine); disulfide Cys22-Cys38) [permanent Lys26 CNP-38 PEG 5 kDa conjugate 19e] | > 100 ratio |

Could you now look at the following binder, please?
Requested read-out: EC50 compound/EC50 CNP-38 (cGMP stimulation in NIH-3T3 cells, residual NPR-B activity). Entry: LQEHPNARKYKGANKKGLSKGCFGLK([reversible prodrug linker-branched PEG 4x10 kDa])LDRIGSMSGLGC (disulfide 22-38; reading uncertain) [reversible Lys26 CNP-38 PEG4x10 kDa conjugate 11i]
> 100 ratio
